B1: VH:VL chains; a variant is named by its letters at X, in order (parent)
chain 1: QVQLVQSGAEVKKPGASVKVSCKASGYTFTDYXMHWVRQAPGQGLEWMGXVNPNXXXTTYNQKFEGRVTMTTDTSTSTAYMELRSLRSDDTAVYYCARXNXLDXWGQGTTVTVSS
chain 2: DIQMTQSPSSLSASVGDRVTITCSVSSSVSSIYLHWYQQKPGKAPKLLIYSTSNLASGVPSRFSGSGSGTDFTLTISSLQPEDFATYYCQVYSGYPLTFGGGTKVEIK

# Variants of: B1
# test summary: yeast display scFab, FACS + sequencing
property label: non-specific binding call

var	non-specific binding call
YRAGDALD	no binding
FRGRAAVD	binds
AARADDVD	no binding
VRTEDDWF	no binding

Documented non-specific binding call of DEGRGSWA : no binding

Documented non-specific binding call of DGGKGAVD : binds

Documented non-specific binding call of FRGRGSLF : binds
